The reported measurements were obtained from PubChem BioAssay.

- protocol_summary: osmotic lysis modulators in infected erythrocytes, primary screen, PSAC antagonist project, cell-based, P. falciparum Indochina, OD700, 3 h (AID 1156)
- conditions_used: higher = more signal, called active from +8 up or from −8 down
# Lookup of reported z-score keyed by entry

compound	z-score
O=C1C=C[C@@H](O)[C@@H]2[C@@H]3C(=O)N(c4cccc(Oc5ccccc5)c4)C(=O)[C@@H]3CC[C@@H]12	-0.441
CON(C)C(=O)c1nnc2c(n1)[nH]c1ccccc12	-0.322
CCOC(=O)[C@H](Cc1ccccc1)NC(=O)CCC1CC(OC(=O)NCCc2ccc(F)cc2)CC2(CCCC(COC(=O)NCc3cccc(C(F)(F)F)c3)O2)O1 (some centres undefined)	-0.017
O=C1C=C[C@@H](O)[C@@H]2[C@@H]3C(=O)N(Cc4ccc5c(c4)OCO5)C(=O)[C@@H]3CC[C@@H]12	-0.556
